Catalogue of compounds with associated melting point

// worked examples, melting point included
[
  {
    "COMPOUND": "CCc1nc2cc(C#N)c(Cl)cc2n1-c1ccc(CCNC(=O)NS(=O)(=O)c2ccc(C)cc2)cc1",
    "melting point": "219 to 224 °C"
  },
  {
    "COMPOUND": "Cc1ccc(Nc2nc3ccccc3c3[nH]c(C4CCCC4)nc23)cc1",
    "melting point": "125 to 126 °C"
  },
  {
    "COMPOUND": "O=C(O)[C@H](CS)N(Sc1nc2cc(Cl)ccc2s1)C(=O)Cc1ccccc1",
    "melting point": "155 to 158 °C"
  },
  {
    "COMPOUND": "CN(Cc1ccccc1S(=O)c1nc2ccccc2[nH]1)c1ccccc1 (stereo not given)",
    "melting point": "164 to 166 °C"
  },
  {
    "COMPOUND": "O=C(Nc1ccc(C(=O)NCCCN2CCOCC2)cc1O)C(=O)Nc1cc(Cl)cc(Cl)c1O",
    "melting point": "227 °C"
  }
]

Param item = O=C1NC(O)C2CN(Cc3ccccc3)CC12 (stereo not given) ; retrieve measured melting point.
138 °C

Next: CNc1nc(NC)c2ncn(COC(COC(=O)C(C)C)COC(=O)C(C)C)c2n1
122 to 123 °C

Next: COC(=O)NN=Cc1cnc2ccccc2n1
242 to 244 °C

Next: CS(=O)(=O)c1ccc(-c2[nH]c3ccccc3c2-c2ccc(F)cc2)cc1
224 to 226 °C

Next: NCCNc1nc2ccccc2n(-c2ccc(Cl)cc2)c1=O
173 to 174 °C
